- Test system: EKVX
- testName: relative viability (nuclei count vs DMSO), 5 days (fraction); higher = more cells survive
- conditionLabel: first compound 0.01581 µM
Form field: relative viability (one value per entry).

compound: CC1(C)CCC(c2ccc(Cl)cc2)=C(CN2CCN(c3ccc(C(=O)NS(=O)(=O)c4ccc(N[C@H](CCN5CCOCC5)CSc5ccccc5)c(S(=O)(=O)C(F)(F)F)c4)cc3)CC2)C1 [Navitoclax] + N=C(N)NC(=N)NCCc1ccccc1 [Phenformin] (partner 250 µM)
relative viability: 0.238
--
compound: CC1(C)CCC(c2ccc(Cl)cc2)=C(CN2CCN(c3ccc(C(=O)NS(=O)(=O)c4ccc(N[C@H](CCN5CCOCC5)CSc5ccccc5)c(S(=O)(=O)C(F)(F)F)c4)cc3)CC2)C1 [Navitoclax] + Cc1nc(Nc2ncc(C(=O)Nc3c(C)cccc3Cl)s2)cc(N2CCN(CCO)CC2)n1 [Dasatinib] (partner 0.075 µM)
relative viability: 0.583
--
compound: CC1(C)CCC(c2ccc(Cl)cc2)=C(CN2CCN(c3ccc(C(=O)NS(=O)(=O)c4ccc(N[C@H](CCN5CCOCC5)CSc5ccccc5)c(S(=O)(=O)C(F)(F)F)c4)cc3)CC2)C1 [Navitoclax] + Nc1ncn([C@H]2C[C@H](O)[C@@H](CO)O2)c(=O)n1 [Decitabine] (partner 2 µM)
relative viability: 0.428
--
compound: CC1(C)CCC(c2ccc(Cl)cc2)=C(CN2CCN(c3ccc(C(=O)NS(=O)(=O)c4ccc(N[C@H](CCN5CCOCC5)CSc5ccccc5)c(S(=O)(=O)C(F)(F)F)c4)cc3)CC2)C1 [Navitoclax] + Nc1nc2[nH]cc(CCc3ccc(C(=O)N[C@@H](CCC(=O)O)C(=O)O)cc3)c2c(=O)[nH]1 [Pemetrexed] (partner 0.2 µM)
relative viability: 0.389
--
compound: CC1(C)CCC(c2ccc(Cl)cc2)=C(CN2CCN(c3ccc(C(=O)NS(=O)(=O)c4ccc(N[C@H](CCN5CCOCC5)CSc5ccccc5)c(S(=O)(=O)C(F)(F)F)c4)cc3)CC2)C1 [Navitoclax] + NC(=O)Nc1cc(-c2cccc(F)c2)sc1C(=O)N[C@H]1CCCNC1 [AZD7762] (partner 0.2 µM)
relative viability: 0.784
